Molecular target: Corticotropin-releasing factor receptor 1 (Homo sapiens)
Sequence (P34998 whole entry): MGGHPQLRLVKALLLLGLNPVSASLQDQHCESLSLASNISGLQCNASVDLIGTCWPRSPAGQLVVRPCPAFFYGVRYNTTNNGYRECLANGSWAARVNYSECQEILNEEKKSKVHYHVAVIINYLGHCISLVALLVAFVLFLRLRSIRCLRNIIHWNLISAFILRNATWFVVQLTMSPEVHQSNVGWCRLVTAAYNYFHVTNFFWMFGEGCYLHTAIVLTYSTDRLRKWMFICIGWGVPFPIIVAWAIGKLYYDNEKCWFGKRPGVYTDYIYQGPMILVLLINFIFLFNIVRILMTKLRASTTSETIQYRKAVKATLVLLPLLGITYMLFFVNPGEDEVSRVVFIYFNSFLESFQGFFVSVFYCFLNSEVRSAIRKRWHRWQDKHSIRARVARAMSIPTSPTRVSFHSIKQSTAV
Assay: Displacement of [125I]-Tyr-o- CRF from human corticotropin releasing factor receptor 1 expressed in IMR-32 cells
Format: cell-based
VALUE TYPE: pKi
Please note pKi is a logarithmic value: minus log10 of concentration in mol/L. Answer with that number alone.

| STRUCTURE SMILES STRING | STUDY SYSTEM | pKi |
| --- | --- | --- |
| CCCN(CCc1ccccc1)C(=O)c1c(CC)nc2n1CCN2c1c(C)cc(C)cc1C | Corticotropin-releasing factor receptor 1 (Homo sapiens) | 6.66 |
| C=CCN(CCC)C(=O)c1c(CC)nc2n1CCN2c1c(C)cc(C)cc1C | Corticotropin-releasing factor receptor 1 (Homo sapiens) | 6.13 |
| C=CCN(CC=C)C(=O)c1c(CC)nc2n1CCN2c1c(C)cc(C)cc1C | Corticotropin-releasing factor receptor 1 (Homo sapiens) | 5.52 |

Attention now shifts to the item below.
Query: Quick one: pKi for CCCN(CC1CC1)C(=O)c1c(CC)nc2n1CCN2c1c(C)cc(Cl)cc1Cl ?
Reply: 7.12

* * *

Test: Maximum concentration upon oral administration of 10 mg/kg of dose in a dosing vehicle of 10/10/80 cremaphor/DMSO/water
Format: ADME, organism-based
Parameters: dose 10 mg/kg, route oral
Details: in vivo
VALUE TYPE: Cmax (ng/mL)
Respond with the bare value in ng/mL.

Query: Form field: reported Cmax of CCCN(CC1CC1)C(=O)c1c(CC)nc2n1CCN2c1c(C)cc(C)cc1C
Reply: 250

* * *

Corticotropin-releasing factor receptor 1 (Homo sapiens) measurements of log10(Ki), listed per entry.
Give log10 of Ki, with Ki taken in nM.

| STRUCTURE SMILES STRING | log10(Ki) |
| --- | --- |
| CCc1nc2n(c1C(=O)N(CC1CC1)CC(F)(F)F)CCN2c1c(C)cc(C)cc1Br | 1.41 |

Query: What reported log10(Ki) corresponds to CCc1nc2n(c1C(=O)N(CC1CC1)CC1CC1)CCN2c1c(C)cc(C)cc1C on Corticotropin-releasing factor receptor 1 (Homo sapiens)?
Reply: 1.83

Query: Form field: log10(Ki) recorded for CCCN(Cc1ccccc1)C(=O)c1c(CC)nc2n1CCN2c1c(C)cc(C)cc1C with Corticotropin-releasing factor receptor 1 (Homo sapiens) (enter value)
Reply: 3.61

* * *

Experiment: Brain to plasma (2 hours) concentration ratio upon intravenous administration of 2 mg/kg of dose in a dosing vehicle of 10/10/80 cremaphor/DMSO/water
Type: ADME, organism-based
Parameters: dose 2 mg/kg, route intravenous
Conditions: brain and plasma, read-out: B/P
VALUE TYPE: Kp at 2 h

Query: Kp at 2 h lookup needed for CCCN(CC1CC1)C(=O)c1c(CC)nc2n1CCN2c1c(C)cc(C)cc1C , thanks.
Reply: 0.21

* * *

Test: Maximum time to reach peak concentration upon oral administration of 10 mg/kg of dose in a dosing vehicle of 10/10/80 cremaphor/DMSO/water
Type: ADME, organism-based
Design: dose 10 mg/kg, route oral
Conditions: in vivo
VALUE TYPE: Tmax (h)
State just the number; it will be interpreted in h.

Query: So what does the record say about Tmax for CCCN(CC1CC1)C(=O)c1c(CC)nc2n1CCN2c1c(C)cc(C)cc1C ?
Reply: 4
